target: T1, human CD3 on CD3+ Jurkat cells (human, UniProt P07766 23-207); assay: flow cytometry, 100 nM IgG on CD3+ Jurkat cells, pH 6.0
T1 construct: whole, on cells; Native CD3 complex on cells; the other CD3 chains are not specified for this assay; also called Human CD3+ Jurkat
T1 sequence (P07766 23-207): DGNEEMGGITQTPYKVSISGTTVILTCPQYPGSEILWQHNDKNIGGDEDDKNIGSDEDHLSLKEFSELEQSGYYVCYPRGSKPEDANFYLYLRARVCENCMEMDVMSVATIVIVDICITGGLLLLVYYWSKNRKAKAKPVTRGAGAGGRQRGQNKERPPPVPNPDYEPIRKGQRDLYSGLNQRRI
result.type: MFI pH 6.0 (MFI)

1. SAD10320_P01_A02 (ADI-48646) (antibody, V domains shown, IgG; also called Ab53) VH: QVQLVQSGAEVKKPGASVKVSCKASGFNIKDYYMHWVRQAPGQRLEWMGWIDLENANTIYDAKFQGRVTITRDTSASTAYMELSSLRSEDTAVYYCARDAYPHYFYDVWGQGTLVTVSS VL: DIVMTQSPDSLAVSLGERATINCKSSQSLLNARTGKNYLAWYQQKPGQPPKLLIYWASTRESGVPDRFSGSGSGTDFTLTISSLQAEDVAVYYCKQSYHERTFGGGTKVEIK = 1270
2. SAD10319_P01_H01 (ADI-48623) (antibody, V domains shown, IgG; also called Ab235) VH: QVQLVQSGAEVKKPGASVKVSCKASGYTFDDYAMHWVRQAPGQRLEWMGWIDAGTGDTKYSQKFQGRVTITRDTSASTAYMELSSLRSEDTAVYYCARDHYHRYFYDVWGQGTLVTVSS VL: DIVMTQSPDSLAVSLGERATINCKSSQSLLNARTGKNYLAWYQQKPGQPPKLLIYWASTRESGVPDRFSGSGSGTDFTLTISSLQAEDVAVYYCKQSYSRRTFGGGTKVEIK = 1760
3. SAD10319_P01_H02 (ADI-48625) (antibody, V domains shown, IgG; also called Ab242) VH: QVQLVQSGAEVKKPGASVKVSCKASGYTFTDYAMHWVRQAPGQRLEWMGWINPSTGATVYSQKFQGRVTITRDTSASTAYMELSSLRSEDTAVYYCARDAYHHYFYDVWGQGTLVTVSS VL: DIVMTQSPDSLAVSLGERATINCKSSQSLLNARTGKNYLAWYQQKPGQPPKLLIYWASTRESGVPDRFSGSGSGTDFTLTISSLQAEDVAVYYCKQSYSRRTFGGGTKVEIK = 1730
